System: ParRC(pCW3) (Clostridium perfringens plasmid pCW3)
procedure.summary: SPR
Below, each entry is listed with its recorded binding signal.
Give just the number in RU; leave the unit off.

Field: example entries. Status: answers known.
Recorded binding signal of AATATAAAAACATAAACATCACAATTTTAC / GTAAAATTGTGATGTTTATGTTTTTATATTCCTACCCTACGTCCTCCTGC [parCC C11] , please. 154

Recorded binding signal of AATTAAAAACATCACAATTTTACGTAATGA / TCATTACGTAAAATTGTGATGTTTTTAATTCCTACCCTACGTCCTCCTGC [parCC C1] , please. 256

// switching to the query sequence
Recorded binding signal of ATCACAATTTTACGTAATGACAGTTTGTTG / CAACAAACTGTCATTACGTAAAATTGTGATCCTACCCTACGTCCTCCTGC [parCC C2] , please. 54

---

Test system: ParRD(pJIR3118) (Clostridium perfringens plasmid pJIR3118 (CN1020 gDNA))
procedure.summary: SPR
assay.metric: binding signal (RU)
Give just the number in RU; leave the unit off.

Field: example entries. Status: answers known.
Recorded binding signal of AAATAATATCAAATAATATTATTTAATGTC / GACATTAAATAATATTATTTGATATTATTTCCTACCCTACGTCCTCCTGC [parCD D4] , please. 232

Recorded binding signal of ATACTAATTAATATTATTTAATTATTGACT / AGTCAATAATTAAATAATATTAATTAGTATCCTACCCTACGTCCTCCTGC [parCD D13] , please. 187

Recorded binding signal of ACATTAAAAGATACTAATTAATATTATTTA / TAAATAATATTAATTAGTATCTTTTAATGTCCTACCCTACGTCCTCCTGC [parCD D12] , please. 250

New cases:
Recorded binding signal of GAATAATATTAAATAATATCAAATAATATT / AATATTATTTGATATTATTTAATATTATTCCCTACCCTACGTCCTCCTGC [parCD D3] , please. 225

Recorded binding signal of ATGTTAAATGATATTAAATAACATTAAAAG / CTTTTAATGTTATTTAATATCATTTAACATCCTACCCTACGTCCTCCTGC [parCD D10] , please. 270

---

Below, each entry is listed with its recorded binding signal.
Test system: ParRB(pJIR4165) (Clostridium perfringens plasmid pJIR4165)
procedure.summary: SPR
Give just the number in RU; leave the unit off.

Recorded binding signal of TCACTATATGTATATACTGAATATATACAT / ATGTATATATTCAGTATATACATATAGTGACCTACCCTACGTCCTCCTGC [parCB B2] , please. 383

Recorded binding signal of TAGTATATATCTAGTATATACTAAATTTAT / ATAAATTTAGTATATACTAGATATATACTACCTACCCTACGTCCTCCTGC [parCB B21] , please. 377

Recorded binding signal of TTTATTAATTTCACTATATGTATATACTGA / TCAGTATATACATATAGTGAAATTAATAAACCTACCCTACGTCCTCCTGC [parCB B1] , please. 58

// switching to the query sequence
Recorded binding signal of AGGTATAAACTCAGTATATACATGATTGAA / TTCAATCATGTATATACTGAGTTTATACCTCCTACCCTACGTCCTCCTGC [parCB B17] , please. 368

---

Tested on: ParRD(pJIR3118) (Clostridium perfringens plasmid pJIR3118 (CN1020 gDNA))
procedure.summary: SPR
assay.metric: binding signal (RU)
Give just the number in RU; leave the unit off.

Recorded binding signal of ATATTAAATAACATTAAAAGATACTAATTA / TAATTAGTATCTTTTAATGTTATTTAATATCCTACCCTACGTCCTCCTGC [parCD D11] , please. 236

New cases:
Recorded binding signal of TTTATTAATTTCACTATATGTATATACTGA / TCAGTATATACATATAGTGAAATTAATAAACCTACCCTACGTCCTCCTGC [parCB B1] , please. 1.1

Recorded binding signal of AGGTTATTTAATGTTAAATGATATTAAATA / TATTTAATATCATTTAACATTAAATAACCTCCTACCCTACGTCCTCCTGC [parCD D9] , please. 213
